Value source: paper PMC7016291

- assay_system: CYP2C9 (Homo sapiens, UniProt P11712)
- Sequence (P11712 whole entry): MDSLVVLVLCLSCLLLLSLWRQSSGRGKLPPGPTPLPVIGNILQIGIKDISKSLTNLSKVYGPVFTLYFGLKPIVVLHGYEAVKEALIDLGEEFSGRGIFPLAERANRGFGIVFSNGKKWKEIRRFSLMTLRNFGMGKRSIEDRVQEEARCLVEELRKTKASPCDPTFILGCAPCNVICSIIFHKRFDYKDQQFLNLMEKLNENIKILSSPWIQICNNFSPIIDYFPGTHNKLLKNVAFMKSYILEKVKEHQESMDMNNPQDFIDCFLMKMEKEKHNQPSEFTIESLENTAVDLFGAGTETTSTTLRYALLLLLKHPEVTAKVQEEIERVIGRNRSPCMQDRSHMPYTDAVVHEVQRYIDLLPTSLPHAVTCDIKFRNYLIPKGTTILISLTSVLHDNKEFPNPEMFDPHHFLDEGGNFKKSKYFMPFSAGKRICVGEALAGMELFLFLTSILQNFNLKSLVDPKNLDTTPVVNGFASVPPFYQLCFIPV
pIC50: −log10 of the molar value.

given_smiles | pIC50
Cc1cc(-c2ccc(C#N)cc2)cc(C)c1Oc1nc(NCCN2CCOCC2)nc(Nc2ccc(C#N)cc2)n1 | 4.48

###

pIC50: −log10 of the molar value.
Reported pIC50 for target or system WT HIV-1 RT (Human immunodeficiency virus type 1 group M subtype B), by entry.
property: pIC50

molecule | property | data_value
Cc1cc(-c2ccc(C#N)cc2)cc(C)c1Nc1nc(Nc2ccc(C#N)cc2)nc(N2CCC(O)CC2)n1 | pIC50 | 6.65
Cc1cc(-c2ccc(C#N)cc2)cc(C)c1Nc1nc(Nc2ccc(C#N)cc2)nc(NC2CC2)n1 | pIC50 | 7.13
Cc1cc(-c2ccc(C#N)cc2)cc(C)c1Oc1nc(NCCN2CCOCC2)nc(Nc2ccc(C#N)cc2)n1 | pIC50 | 6.76
Cc1cc(-c2ccc(C#N)cc2)cc(C)c1Oc1nc(Nc2ccc(C#N)cc2)nc(N2CCOCC2)n1 | pIC50 | 6.71
Cc1cc(-c2ccc(C#N)cc2)cc(C)c1Nc1nc(Nc2ccc(C#N)cc2)nc(N2CCC(O)C2)n1 (stereo not shown) | pIC50 | 6.99
Cc1cc(-c2ccc(C#N)cc2)cc(C)c1Nc1nc(Nc2ccc(C#N)cc2)nc(NC2CCOCC2)n1 | pIC50 | 6.61
Cc1cc(-c2ccc(C#N)cc2)cc(C)c1Nc1nc(NCCN2CCN(C)CC2)nc(Nc2ccc(C#N)cc2)n1 | pIC50 | 6.81

###

Known CC50 at 4 days of a selection of molecules
- assay_explanation: Cytotoxicity in uninfected MT-4 cells
- Type: cell-based
- measurement_context: human, uninfected MT-4 cells
property: CC50 at 4 days

molecule | data_value
Cc1ccnc2c1NC(=O)c1cccnc1N2C1CC1 [NVP, nevirapine, reference compound] | > 4 µg/mL
Cc1cc(-c2ccc(C#N)cc2)cc(C)c1Nc1nc(Nc2ccc(C#N)cc2)nc(NC2CCOCC2)n1 [Compound 6c] | > 125 µM
Cc1cc(-c2ccc(C#N)cc2)cc(C)c1Nc1nc(Nc2ccc(C#N)cc2)nc(N2CCC(O)CC2)n1 [Compound 6l] | 5.71 µM
Cc1cc(C#N)cc(C)c1Oc1nc(Nc2ccc(C#N)cc2)nc(N)c1Br [ETR, etravirine, reference compound] | > 2 µg/mL
Cc1cc(-c2ccc(C#N)cc2)cc(C)c1Nc1nc(NCC2CCOCC2)nc(Nc2ccc(C#N)cc2)n1 [Compound 6d] | > 125 µM
Cc1cc(-c2ccc(C#N)cc2)cc(C)c1Oc1nc(NCCN2CCOCC2)nc(Nc2ccc(C#N)cc2)n1 [Compound 5j] | 1.08 µM
Cc1cc(-c2ccc(C#N)cc2)cc(C)c1Nc1nc(Nc2ccc(C#N)cc2)nc(N2CCNCC2)n1 [Compound 6h] | 9.24 µM
Cc1cc(-c2ccc(C#N)cc2)cc(C)c1Nc1nc(Nc2ccc(C#N)cc2)nc(N2CCOCC2)n1 [Compound 6g] | > 125 µM
Cc1cc(-c2ccc(C#N)cc2)cc(C)c1Oc1nc(Nc2ccc(C#N)cc2)nc(N2CCOCC2)n1 [Compound 5e] | > 125 µM
Cc1cc(-c2ccc(C#N)cc2)cc(C)c1Nc1nc(NCCN2CCOCC2)nc(Nc2ccc(C#N)cc2)n1 [Compound 6m] | 13.9 µM
Cc1cc(-c2ccc(C#N)cc2)cc(C)c1Nc1nc(Nc2ccc(C#N)cc2)nc(N2CCCC2CO)n1 (centres unmarked) [Compound 6j] | 62.9 µM
Cc1cc(-c2ccc(C#N)cc2)cc(C)c1Oc1nc(Nc2ccc(C#N)cc2)nc(NC2CCOCC2)n1 [Compound 5b] | > 125 µM
Cc1cc(-c2ccc(C#N)cc2)cc(C)c1Nc1nc(Nc2ccc(C#N)cc2)nc(NC2CC2)n1 [Compound 6a] | > 125 µM
Cc1cc(-c2ccc(C#N)cc2)cc(C)c1Nc1nc(NCC2CCOC2)nc(Nc2ccc(C#N)cc2)n1 (centres unmarked) [Compound 6e] | > 125 µM

###

- assay_explanation: In vivo pharmacokinetics in SD rats
- measurement_context: rat, plasma, po, 20 mg/kg

compound | AUC(0-t)
Cc1cc(-c2ccc(C#N)cc2)cc(C)c1Oc1nc(NCCN2CCOCC2)nc(Nc2ccc(C#N)cc2)n1 [Compound 5j] | 322 ng·h/mL

###

Known CC50 at 4 days of a selection of molecules
- assay_explanation: Cytotoxicity in uninfected MT-4 cells
- Format: cell-based
- measurement_context: human, uninfected MT-4 cells

molecule | quantity_unit | readout_relation | CC50 at 4 days
Cc1cc(-c2ccc(C#N)cc2)cc(C)c1Oc1nc(NCCN2CCN(C)CC2)nc(Nc2ccc(C#N)cc2)n1 [Compound 5k] | µM | = | 14.1
COC(=O)[C@@H]1CCCN1c1nc(Nc2ccc(C#N)cc2)nc(Nc2c(C)cc(-c3ccc(C#N)cc3)cc2C)n1 [Compound 6f] | µM | > | 125
Cc1cc(-c2ccc(C#N)cc2)cc(C)c1Oc1nc(NCC2CCOC2)nc(Nc2ccc(C#N)cc2)n1 (stereo not shown) [Compound 5c] | µM | > | 125
COC(=O)[C@@H]1CCCN1c1nc(Nc2ccc(C#N)cc2)nc(Oc2c(C)cc(-c3ccc(C#N)cc3)cc2C)n1 [Compound 5d] | µM | = | 2.23

###

pIC50: −log10 of the molar value.
Reported pIC50 for target or system HIV-1 RT RNase H (Human immunodeficiency virus type 1 group M subtype B, UniProt P03366), by entry.
property: pIC50

molecule | data_value
Cc1cc(-c2ccc(C#N)cc2)cc(C)c1Nc1nc(Nc2ccc(C#N)cc2)nc(N2CCC(O)C2)n1 (stereo not shown) | < 2.92
Cc1cc(-c2ccc(C#N)cc2)cc(C)c1Nc1nc(Nc2ccc(C#N)cc2)nc(NC2CC2)n1 | < 2.90
Cc1cc(-c2ccc(C#N)cc2)cc(C)c1Nc1nc(NCC2CCOC2)nc(Nc2ccc(C#N)cc2)n1 (stereo not shown) | < 2.94
Cc1cc(-c2ccc(C#N)cc2)cc(C)c1Nc1nc(NCC2CCOCC2)nc(Nc2ccc(C#N)cc2)n1 | < 2.95
Cc1cc(-c2ccc(C#N)cc2)cc(C)c1Nc1nc(Nc2ccc(C#N)cc2)nc(NC2CCOCC2)n1 | < 2.94
Cc1cc(-c2ccc(C#N)cc2)cc(C)c1Oc1nc(Nc2ccc(C#N)cc2)nc(N2CCC(O)CC2)n1 | 3.30
Cc1cc(-c2ccc(C#N)cc2)cc(C)c1Nc1nc(NCCN2CCN(C)CC2)nc(Nc2ccc(C#N)cc2)n1 | < 2.97
Cc1cc(-c2ccc(C#N)cc2)cc(C)c1Oc1nc(Nc2ccc(C#N)cc2)nc(N2CCCC2CO)n1 (stereo not shown) | < 2.94
COC(=O)[C@@H]1CCCN1c1nc(Nc2ccc(C#N)cc2)nc(Oc2c(C)cc(-c3ccc(C#N)cc3)cc2C)n1 | < 2.96
Cc1cc(-c2ccc(C#N)cc2)cc(C)c1Nc1nc(NCCN2CCOCC2)nc(Nc2ccc(C#N)cc2)n1 | < 3.00

###

Known EC50 of a selection of compounds
- Tested on: HIV-1 F227L + V106A
- assay_explanation: Anti-HIV-1 activity against double mutant F227L + V106A in MT-4 cells
- Format: cell-based
- measurement_context: Human immunodeficiency virus 1, MT4, read-out: EC50 F227L + V106A
property: EC50

compound | data_value
Cc1cc(-c2ccc(C#N)cc2)cc(C)c1Nc1nc(Nc2ccc(C#N)cc2)nc(N2CCN(C)CC2)n1 [Compound 6i] | ≥ 3.69 µM
Cc1cc(-c2ccc(C#N)cc2)cc(C)c1Nc1nc(NCC2CCOC2)nc(Nc2ccc(C#N)cc2)n1 (stereo not drawn) [Compound 6e] | ≥ 16.4 µM
Cc1ccnc2c1NC(=O)c1cccnc1N2C1CC1 [NVP, nevirapine, reference compound] | > 4 µM
